The reported measurements were obtained from paper PMC9518248.

Catalogue of compounds with associated viability at 24 h, 35 µg/mL
# assay.explanation: Cytotoxicity against glioblastoma cells (MTT)
# Type: cell-based, human
# condition.context: human, T98G glioblastoma cells, 35 µg/mL, MTT, read-out: Viability of T98G cells (% of control ± SD)

{"columns": ["compound", "viability at 24 h, 35 µg/mL (%)"],
 "data": [
  ["COc1ccc(-n2c(-c3[nH]cnc3C)n[nH]c2=S)cc1 [20b]", 87.2],
  ["Cn1nnc2c(C(N)=O)ncn2c1=O [Temozolomide, reference compound]", 57.3]
]}

###

# assay.explanation: Cytotoxicity against glioblastoma cells (MTT)
# Type: cell-based, human
# condition.context: human, T98G glioblastoma cells, 100 µg/mL, MTT, read-out: Viability of T98G cells (% of control ± SD)
# Protocol: Cytotoxic effect of 20b was evaluated using glioblastoma (T98G) cells obtained from the American Type Culture Collection (Manassas, VA). […] Viability of T98G cells was evaluated using MTT assay, whose principle is based on the conversion of 3–(4,5-dimethylthiazol-2-yl)-2,5-diphenyltetrazolium bromide (MTT) into dark-blue formazan crystals. […] After overnight incubation the absorbance was measured at 570 nm using a microplate reader (Epoch, BioTek Instruments, Winooski, VT). […]
value.type: viability at 24 h, 100 µg/mL (%)

{"columns": ["molecule", "quantitative.result"],
 "data": [
  ["Cn1nnc2c(C(N)=O)ncn2c1=O [Temozolomide, reference compound]", 54],
  ["COc1ccc(-n2c(-c3[nH]cnc3C)n[nH]c2=S)cc1 [20b]", 76.3]
]}

###

# assay.explanation: PAMPA-BBB assay
# Format: in vitro ADME
# condition.context: pH 7.4, 37 °C, 180 min, read-out: permeability coefficient Pe

{"columns": ["compound", "Papp at 180 min, 20 μg/mL, ×10⁻⁶ cm/s"],
 "data": [
  ["COc1ccc(-n2c(-c3[nH]cnc3C)n[nH]c2=S)cc1 [20b]", 34.9]
]}

###

{"columns": ["compound", "melting point / °C"],
 "data": [
  ["COc1cccc(-n2c(-c3[nH]cnc3C)n[nH]c2=S)c1 [19b]", 228.8],
  ["Cc1cccc(-n2c(-c3[nH]cnc3C)n[nH]c2=S)c1 [15b]", 248.7],
  ["Cc1nc[nH]c1-c1n[nH]c(=S)n1-c1cccc(F)c1", 284],
  ["Cc1nc[nH]c1-c1n[nH]c(=S)n1-c1ccccc1I [10b]", 297.6],
  ["CCOc1ccc(-n2c(-c3[nH]cnc3C)n[nH]c2=S)cc1 [22b]", 239.9],
  ["Cc1nc[nH]c1-c1n[nH]c(=S)n1-c1cccc(Cl)c1", 297.8],
  ["Cc1ccc(-n2c(-c3[nH]cnc3C)n[nH]c2=S)cc1Cl [17b]", 264.1],
  ["Cc1nc[nH]c1-c1n[nH]c(=S)n1-c1cccc(I)c1 [11b]", 276.5]
]}

###

# assay.explanation: Haemolytic activity determination
# Type: cell-based
# condition.context: 2% suspension of human red blood cells; 35 µg/mL, human RBCs, 37 °C, 30 min; read-out: Haemolysis (%)
value.type: hemolysis at 30 min, 35 µg/mL

{"columns": ["compound", "value.type", "result"],
 "data": [
  ["COc1ccc(-n2c(-c3[nH]cnc3C)n[nH]c2=S)cc1 [20b]", "hemolysis at 30 min, 35 µg/mL", "0.183%"]
]}
